# cytotoxicity at 70.5 h values compiled below
# Test: Human HepG2 cell viability assay in 384 well format
# Format: toxicity, cell-based
# Design: dose 125 nL, time 70.5 hour; concentration not given beside the values
# Reported Conditions: HepG2 cells, read-out: Inhibition
Unit % implied. Number only.

Consider the reported cytotoxicity at 70.5 h for these compounds:
INSERT INTO measurements (compound, result_type, readout_value) VALUES
  ('Cc1nc(C2CCCN2C(=O)Cc2ccc(F)cc2)ncc1C(N)=O (stereo not drawn)', 'cytotoxicity at 70.5 h', -8.28),
  ('COc1cccc(CN2CCCC2c2c(C)nn(C)c2C)c1 (stereo not drawn)', 'cytotoxicity at 70.5 h', 3.04),
  ('O=C(NCCc1c[nH]cn1)c1ccc2c(c1)C(=O)N(C1CCCC1)C2=O', 'cytotoxicity at 70.5 h', -1.68),
  ('CC(C)(O)CN1CCN(C(=O)c2sccc2C#N)CC1', 'cytotoxicity at 70.5 h', -3.64);

## Input Which cytotoxicity at 70.5 h value is on record for CSCCCN1C[C@H]2CC[C@@H]1CN(Cc1[nH]cnc1C)C2 ?
## Output -2.71

## Input So what does the record say about cytotoxicity at 70.5 h for CC(C)Cn1cncc1-c1nc2c([nH]1)CC(C)(C)CNC2=O ?
## Output 4.26

## Input Query: cytotoxicity at 70.5 h; subject: CC(=O)NCC(=O)N1CCOC(c2cccc(N)n2)C1 (stereo not drawn)
## Output 15.3

Taken from ChEMBL document CHEMBL3507680.
